Activity calls are given as the source filed them.
In what follows, each item is paired with its Kd for Adenylate kinase 2, mitochondrial (Homo sapiens, UniProt P54819).
parameter: Kd

smilesinput=COc1cccc(Nc2ncnn3ccc(CN4CC[C@@H](N)[C@H](O)C4)c23)c1 readoutvalue="> 30 µM (inactive)"
smilesinput=COc1cc2ncnc3c2cc1OCCCCCN(C)Cc1ccc(Br)cc1N3 readoutvalue="> 30 µM (inactive)"
smilesinput=O[C@H]1CC[C@H](Nc2ncc3nc(Nc4c(F)cc(F)cc4F)n([C@H]4CCOC4)c3n2)CC1 readoutvalue="> 30 µM (inactive)"
smilesinput=C[C@@H]1COC(Nc2ccc3ncnc(Nc4ccc(OCc5nccs5)c(Cl)c4)c3c2)=N1 readoutvalue="> 30 µM (inactive)"
smilesinput=COc1cc(Nc2ncc(F)c(Nc3ccc4c(n3)N(COP(=O)(O)O)C(=O)C(C)(C)O4)n2)cc(OC)c1OC readoutvalue="> 30 µM (inactive)"
smilesinput=CCN1CCN(Cc2ccc(Nc3ncc(F)c(-c4cc(F)c5nc(C)n(C(C)C)c5c4)n3)nc2)CC1 readoutvalue="> 30 µM (inactive)"
smilesinput=O=C(O)c1ccc2c(c1)nc(Nc1cccc(Cl)c1)c1ccncc12 readoutvalue="> 30 µM (inactive)"
smilesinput=O=C(NC[C@H](O)CO)c1ccncc1Nc1ccc(I)cc1F readoutvalue="> 30 µM (inactive)"
smilesinput=Cn1c(=O)n(-c2ccc(C(C)(C)C#N)cc2)c2c3cc(-c4cnc5ccccc5c4)ccc3ncc21 readoutvalue="> 30 µM (inactive)"
smilesinput=CNC(=O)c1cccc(-c2ccc3c(N4CCOC[C@@H]4C)nc(N4CCOC[C@@H]4C)nc3n2)c1 readoutvalue="> 30 µM (inactive)"
